Data provenance is patent US20020052390A1.

- run description: Concentrations of itraconazole in solution by HPLC
- Format: physicochemical
- conditions used: PEG-400, organic solvent or mixture, 500 mg Itraconazole powder AS into 250 mL PEG-400 (stock solution); read-out: Soluble Itraconazole Concentration
experimental readout: solubility (µg/mL)
Write the answer as a number in µg/mL, unit excluded.

Inquiry: Return reported solubility; argument: CCC(C)n1ncn(-c2ccc(N3CCN(c4ccc(OCC5COC(Cn6cncn6)(c6ccc(Cl)cc6Cl)O5)cc4)CC3)cc2)c1=O (stereo not shown)
Reply text: 1950

* * *

- run description: Concentrations of itraconazole in solution by HPLC
- Format: physicochemical
- conditions used: PEG-400/sterile water solution, aqueous with cosolvent or surfactant or cyclodextrin, kinetic from dmso stock, 100 mL capsule stock solution plus 150 mL PEG-400 diluted with 750 mL sterile water; read-out: Soluble Itraconazole Concentration
experimental readout: solubility

Inquiry: Return reported solubility; argument: CCC(C)n1ncn(-c2ccc(N3CCN(c4ccc(OCC5COC(Cn6cncn6)(c6ccc(Cl)cc6Cl)O5)cc4)CC3)cc2)c1=O (stereo not shown) [Itraconazole, itraconazole]
Reply text: 179 µg/mL
